System: IFNγ
Assay: Cytokine assay: IFNγ release from PHA-L stimulated human PBMCs
Assay type: cell-based
Details: Homo sapiens, PBMC
pIC50: −log10 of the molar value.

compound | pIC50
COc1ccc(-c2cccc(C3COB(O)C3)c2)cc1OC1CCCC1 (centres unmarked) [Example 130] | 8.49
CCCOc1cc(-c2ccc(F)c(C3COB(O)C3)n2)ccc1OC (single isomer, unassigned; enantiomer 1) [Example 230] | 7.58
CCCOc1cc(-c2nc(C3COB(O)C3)ns2)ccc1OC (centres unmarked) [Example 147] | 8.80
CCOc1cc(-c2nc(C3COB(O)C3)ns2)ccc1OC (centres unmarked) [Example 72] | 8.21
CCOc1cc(-c2cccc(C3COB(O)C3)n2)ccc1SC (centres unmarked) [Example 203] | 6.94
CCOc1cc(-c2nc(C3COB(O)C3)cs2)ccc1OC (single isomer, unassigned; enantiomer 1) [Example 194] | 7.83
CCCOc1cc(-c2nc(CC(=O)O)cc(C3COB(O)C3)n2)ccc1OC (centres unmarked) [Example 134] | 8.52
CCCOc1cc(-c2nc(OC)cc(C3COB(O)C3)n2)ccc1OC (centres unmarked) [Example 224] | 8.09
CCCOc1cc(-c2cncc(C3COB(O)C3)c2)ccc1OC (centres unmarked) [Example 34] | 8.86
CCOc1ccc(-c2cncc(C3COB(O)C3)c2)cc1OCC (single isomer, unassigned) [Example 97] | 8.55
COc1ccc(-c2cc(C)cc(C3COB(O)C3)c2)cc1OC (centres unmarked) [Example 207] | 7.27
CCCOc1cc(-c2cncc([C@H]3COB(O)C3)c2)ccc1OC [Example 5] | 8.39
CCOc1ccc(-c2cncc(C3COB(O)C3)c2)c(F)c1OC (centres unmarked) [Example 217] | 7.99
CCCOc1cc(-c2nc(C)cc(C3COB(O)C3)n2)ccc1OC (single isomer, unassigned) [Example 22] | 8.84
CCCOc1cc(-c2cc(C3COB(O)C3)cnn2)ccc1OC (single isomer, unassigned) [Example 136] | 8.61
CCOc1ccc(-c2cncc(C3COB(O)C3)c2)cc1OC (single isomer, unassigned; enantiomer2) [Example 188] | 7.91
CCCCCOc1cc(-c2cccc(C3COB(O)C3)c2)ccc1OC (centres unmarked) [Example 110] | 8.29

Entry source: patent US11559538B2
